Test system: PPARg:RXRa 30nM:10nM, anti-RXR (NR concentration 30 nM, RXRa partner concentration 10 nM)
Assay: PBM binding z-score (relative to random genomic background probes); higher = stronger binding; sequences stand for … in GC…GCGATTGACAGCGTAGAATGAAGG
Listed next: entries and their corresponding PBM binding z-score.

# Sequence Record, PBM binding z-score
measured = [
    ("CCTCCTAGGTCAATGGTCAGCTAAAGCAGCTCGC", 2.32),
    ("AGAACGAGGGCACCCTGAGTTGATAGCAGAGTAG", 0.134),
    ("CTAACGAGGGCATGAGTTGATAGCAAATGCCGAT", 0.704),
    ("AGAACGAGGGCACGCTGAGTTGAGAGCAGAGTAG", 0.0205),
    ("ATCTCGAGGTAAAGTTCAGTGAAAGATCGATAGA", 1.91),
    ("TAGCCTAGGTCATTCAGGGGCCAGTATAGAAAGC", 0.55),
]

###

Tested on: RARg:RXRa (NR concentration 270 nM, RXRa partner concentration 90 nM)
Experiment: PBM binding z-score (relative to random genomic background probes); higher = stronger binding; sequences stand for … in GC…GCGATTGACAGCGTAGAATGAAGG
Measurement Type: PBM binding z-score

# Sequence Record, Result
measured = [
    ("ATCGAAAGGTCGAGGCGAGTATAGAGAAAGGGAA", 3.9),
    ("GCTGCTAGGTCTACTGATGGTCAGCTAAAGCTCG", -0.238),
    ("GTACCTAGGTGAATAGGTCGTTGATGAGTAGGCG", 1.85),
    ("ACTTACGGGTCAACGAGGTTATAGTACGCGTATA", 5.7),
    ("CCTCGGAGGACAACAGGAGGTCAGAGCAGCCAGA", 3.56),
    ("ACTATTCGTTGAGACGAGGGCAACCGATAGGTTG", 0.489),
    ("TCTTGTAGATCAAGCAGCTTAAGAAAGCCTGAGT", -0.336),
    ("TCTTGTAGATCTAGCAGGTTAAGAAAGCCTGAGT", -0.205),
    ("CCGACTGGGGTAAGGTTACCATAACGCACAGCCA", 0.907),
    ("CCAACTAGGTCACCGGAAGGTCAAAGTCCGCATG", 8.38),
    ("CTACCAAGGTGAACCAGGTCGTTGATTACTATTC", 1.44),
    ("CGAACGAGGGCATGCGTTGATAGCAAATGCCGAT", 1.03),
]

###

Test system: VDR:RXRa (NR concentration 270 nM, RXRa partner concentration 90 nM)
Assay: PBM binding z-score (relative to random genomic background probes); higher = stronger binding; sequences stand for … in GC…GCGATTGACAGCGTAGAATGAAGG
Lab note: anything with PBM binding z-score at or over 0.9 counts as label 1; the rest go in label 0.

# Sequence Record, Discrete Label
rows = [
    ("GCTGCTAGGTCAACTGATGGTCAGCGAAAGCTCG", "label 1"),
    ("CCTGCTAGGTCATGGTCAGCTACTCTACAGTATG", "label 1"),
    ("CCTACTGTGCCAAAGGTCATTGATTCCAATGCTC", "label 1"),
    ("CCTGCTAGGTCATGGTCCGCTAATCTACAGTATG", "label 1"),
    ("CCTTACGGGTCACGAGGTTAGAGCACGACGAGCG", "label 1"),
    ("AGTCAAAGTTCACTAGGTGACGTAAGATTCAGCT", "label 1"),
    ("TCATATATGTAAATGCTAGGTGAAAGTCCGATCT", "label 1"),
    ("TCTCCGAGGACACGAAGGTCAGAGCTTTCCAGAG", "label 1"),
    ("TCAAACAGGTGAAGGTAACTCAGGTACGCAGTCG", "label 1"),
    ("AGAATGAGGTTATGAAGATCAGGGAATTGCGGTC", "label 1"),
    ("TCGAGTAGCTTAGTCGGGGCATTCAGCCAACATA", "label 0"),
    ("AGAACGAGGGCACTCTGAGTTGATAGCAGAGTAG", "label 1"),
    ("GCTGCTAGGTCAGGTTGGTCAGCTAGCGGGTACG", "label 0"),
    ("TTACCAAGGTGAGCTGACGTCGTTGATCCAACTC", "label 0"),
    ("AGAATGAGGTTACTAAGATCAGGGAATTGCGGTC", "label 1"),
    ("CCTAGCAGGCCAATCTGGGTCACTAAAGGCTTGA", "label 0"),
    ("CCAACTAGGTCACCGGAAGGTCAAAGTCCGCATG", "label 1"),
    ("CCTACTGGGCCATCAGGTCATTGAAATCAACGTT", "label 1"),
    ("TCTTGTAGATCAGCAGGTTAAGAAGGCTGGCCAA", "label 0"),
    ("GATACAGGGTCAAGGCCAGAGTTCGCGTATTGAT", "label 1"),
    ("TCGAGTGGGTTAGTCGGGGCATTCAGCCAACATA", "label 1"),
    ("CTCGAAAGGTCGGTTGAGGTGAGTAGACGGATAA", "label 1"),
    ("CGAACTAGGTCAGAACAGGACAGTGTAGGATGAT", "label 0"),
    ("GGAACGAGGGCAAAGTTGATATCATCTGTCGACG", "label 1"),
    ("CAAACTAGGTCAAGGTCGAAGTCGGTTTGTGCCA", "label 1"),
    ("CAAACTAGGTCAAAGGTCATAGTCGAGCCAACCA", "label 1"),
    ("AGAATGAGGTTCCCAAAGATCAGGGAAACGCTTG", "label 0"),
    ("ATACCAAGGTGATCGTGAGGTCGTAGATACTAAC", "label 1"),
    ("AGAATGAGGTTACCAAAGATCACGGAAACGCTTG", "label 1"),
    ("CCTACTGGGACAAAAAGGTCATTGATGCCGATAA", "label 1"),
    ("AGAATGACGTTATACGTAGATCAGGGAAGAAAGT", "label 0"),
    ("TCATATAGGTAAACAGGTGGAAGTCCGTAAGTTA", "label 0"),
    ("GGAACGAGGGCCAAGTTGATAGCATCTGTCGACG", "label 0"),
    ("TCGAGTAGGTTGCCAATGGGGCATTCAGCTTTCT", "label 0"),
    ("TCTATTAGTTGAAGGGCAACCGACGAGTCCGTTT", "label 1"),
    ("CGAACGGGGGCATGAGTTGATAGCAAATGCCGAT", "label 1"),
    ("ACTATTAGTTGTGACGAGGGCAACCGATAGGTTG", "label 0"),
    ("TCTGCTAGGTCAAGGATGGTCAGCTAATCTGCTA", "label 1"),
    ("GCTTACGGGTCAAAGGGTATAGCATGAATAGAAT", "label 1"),
    ("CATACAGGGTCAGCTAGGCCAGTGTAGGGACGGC", "label 1"),
    ("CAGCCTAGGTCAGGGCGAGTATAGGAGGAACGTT", "label 0"),
    ("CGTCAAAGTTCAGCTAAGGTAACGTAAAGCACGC", "label 1"),
    ("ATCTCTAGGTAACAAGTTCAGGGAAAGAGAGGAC", "label 1"),
    ("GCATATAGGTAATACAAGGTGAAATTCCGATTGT", "label 0"),
    ("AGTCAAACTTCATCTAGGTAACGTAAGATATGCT", "label 0"),
    ("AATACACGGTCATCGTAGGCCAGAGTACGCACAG", "label 0"),
    ("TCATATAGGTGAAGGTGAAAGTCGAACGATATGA", "label 0"),
    ("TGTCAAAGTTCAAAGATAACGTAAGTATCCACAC", "label 1"),
    ("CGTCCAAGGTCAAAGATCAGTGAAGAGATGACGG", "label 1"),
    ("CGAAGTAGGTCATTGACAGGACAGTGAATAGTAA", "label 1"),
]

###

System: PXR homodimer (NR concentration 270 nM)
Assay: PBM binding z-score (relative to random genomic background probes); higher = stronger binding; sequences stand for … in GC…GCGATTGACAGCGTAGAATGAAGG
Measurement Type: PBM binding z-score

# Sequence Record, Number
records = [
    ("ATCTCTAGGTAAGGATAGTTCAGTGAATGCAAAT", 0.997),
    ("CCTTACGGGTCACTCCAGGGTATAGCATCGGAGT", 0.022),
    ("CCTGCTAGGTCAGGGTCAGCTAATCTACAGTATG", -0.26),
    ("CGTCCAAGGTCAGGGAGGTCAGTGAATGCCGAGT", 10.3),
    ("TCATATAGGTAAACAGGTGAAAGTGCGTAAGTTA", 0.631),
    ("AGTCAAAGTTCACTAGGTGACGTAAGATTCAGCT", 2.57),
    ("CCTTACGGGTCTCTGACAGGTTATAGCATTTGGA", -0.251),
    ("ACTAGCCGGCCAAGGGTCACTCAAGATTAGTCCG", -0.135),
    ("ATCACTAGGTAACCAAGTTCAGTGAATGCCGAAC", 1.73),
    ("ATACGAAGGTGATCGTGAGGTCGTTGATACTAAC", 1.23),
    ("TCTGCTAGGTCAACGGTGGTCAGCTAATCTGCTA", -0.742),
    ("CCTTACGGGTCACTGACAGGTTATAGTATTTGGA", 0.317),
    ("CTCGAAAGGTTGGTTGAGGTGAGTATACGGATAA", 0.376),
    ("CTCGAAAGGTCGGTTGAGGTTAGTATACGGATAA", 0.435),
    ("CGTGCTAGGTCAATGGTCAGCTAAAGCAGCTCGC", -0.615),
    ("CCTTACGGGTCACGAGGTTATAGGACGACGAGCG", 0.176),
    ("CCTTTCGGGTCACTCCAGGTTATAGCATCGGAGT", 0.803),
    ("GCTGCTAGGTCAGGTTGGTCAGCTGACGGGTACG", -0.471),
    ("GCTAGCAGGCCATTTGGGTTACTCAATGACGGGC", -0.482),
    ("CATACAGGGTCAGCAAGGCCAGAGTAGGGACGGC", 0.241),
    ("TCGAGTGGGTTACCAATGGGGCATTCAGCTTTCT", -0.99),
    ("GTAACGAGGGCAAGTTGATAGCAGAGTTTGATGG", 1.23),
    ("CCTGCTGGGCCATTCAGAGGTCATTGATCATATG", 2.03),
    ("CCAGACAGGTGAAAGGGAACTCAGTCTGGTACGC", -0.23),
    ("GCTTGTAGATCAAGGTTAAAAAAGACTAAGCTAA", -0.0589),
    ("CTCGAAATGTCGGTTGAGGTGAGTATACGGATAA", -0.637),
]
